molecular target: MLK3/MAP3K11 (Homo sapiens, UniProt Q16584); construct: purchased Reaction Biology Corp; test: Radiolabeled ATP kinase assay (Reaction Biology Corp.), MLK3; format: biochemical; settings: [Cmpd] 0.1 μM; 10 μM ATP
Sequence (Q16584 whole entry): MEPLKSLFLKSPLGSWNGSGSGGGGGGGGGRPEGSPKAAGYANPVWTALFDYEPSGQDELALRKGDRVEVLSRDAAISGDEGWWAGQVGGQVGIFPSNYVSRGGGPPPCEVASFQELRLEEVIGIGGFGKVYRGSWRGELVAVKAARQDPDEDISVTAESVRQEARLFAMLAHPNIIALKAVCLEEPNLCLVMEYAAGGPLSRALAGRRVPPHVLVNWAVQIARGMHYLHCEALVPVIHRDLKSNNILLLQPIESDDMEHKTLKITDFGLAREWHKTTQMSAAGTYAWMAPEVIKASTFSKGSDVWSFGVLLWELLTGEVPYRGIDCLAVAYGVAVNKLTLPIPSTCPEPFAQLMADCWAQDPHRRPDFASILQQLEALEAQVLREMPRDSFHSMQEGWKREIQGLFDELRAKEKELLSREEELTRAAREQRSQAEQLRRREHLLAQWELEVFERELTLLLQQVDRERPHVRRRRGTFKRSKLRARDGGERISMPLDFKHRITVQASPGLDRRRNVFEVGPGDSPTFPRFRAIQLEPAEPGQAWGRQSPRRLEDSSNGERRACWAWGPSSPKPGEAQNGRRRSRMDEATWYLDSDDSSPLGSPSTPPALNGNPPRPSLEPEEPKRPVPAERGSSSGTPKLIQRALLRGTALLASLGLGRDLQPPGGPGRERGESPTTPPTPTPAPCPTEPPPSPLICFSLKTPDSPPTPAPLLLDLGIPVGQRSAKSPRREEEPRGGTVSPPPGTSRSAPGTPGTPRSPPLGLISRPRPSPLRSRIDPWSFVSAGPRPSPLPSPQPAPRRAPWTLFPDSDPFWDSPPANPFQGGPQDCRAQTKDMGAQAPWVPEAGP
Each entry below carries its reported % Enzyme Activity Remaining (relative to DMSO controls), MLK3/MAP3K11, Data 1.
TEST READOUT: % Enzyme Activity Remaining (relative to DMSO controls), MLK3/MAP3K11, Data 1

> print(dat)
                   compound.structure.string  assay.result
 1  CN1CCN(Cc2ccc(-c3cnc4[nH]cc(-c5ccncc5)c4c3)cc2)CC1        91.26%
 2  CN1CCN(Cc2ccc(-c3cnc4[nH]cc(-c5ccc(C#N)cc5)c4c3)cc2)CC1        90.12%
 3  CC(C)Oc1ccc(-c2c[nH]c3ncc(-c4ccc(CN5CCN(C)CC5)cc4)cc23)cc1        91.91%
 4  COc1cc(-c2c[nH]c3ncc(-c4ccc(CN5CCN(C)CC5)cc4)cc23)cc(OC)c1OC        70.05%
 5  CN1CCN(Cc2ccc(-c3cnc4[nH]cc(-c5ccc(NC(=O)NC6CCCCC6)cc5)c4c3)cc2)CC1        65.23%
 6  Cc1ccc(C)c(-c2c[nH]c3ncc(-c4ccc(CN5CCN(C)CC5)cc4)cc23)c1        75.32%
 7  CN1CCN(Cc2ccc(-c3cnc4[nH]cc(-c5cccc6c5oc5ccccc56)c4c3)cc2)CC1        90.01%
 8  CN1CCN(Cc2ccc(-c3cnc4[nH]cc(-c5cccc(N)c5)c4c3)cc2)CC1        62.91%
 9  CN1CCN(Cc2ccc(-c3cnc4[nH]cc(-c5cnn(C)c5)c4c3)cc2)CC1        90.97%
10  CN1CCN(Cc2ccc(-c3cnc4[nH]cc(-c5cnc(N)nc5)c4c3)cc2)CC1        71.64%
11  CN1CCN(Cc2ccc(-c3cnc4[nH]cc(-c5cc(C(F)(F)F)cc(C(F)(F)F)c5)c4c3)cc2)CC1        95.75%
12  CN1CCN(Cc2ccc(-c3cnc4[nH]cc(-c5ccc(Cl)cc5Cl)c4c3)cc2)CC1        84.17%
13  CN1CCN(Cc2ccc(-c3cnc4[nH]cc(-c5cccc(Cl)c5)c4c3)cc2)CC1        37.50%
14  CN1CCN(Cc2ccc(-c3cnc4[nH]cc(-c5ccccc5Cl)c4c3)cc2)CC1        49.99%
15  CCOc1ccc(-c2c[nH]c3ncc(-c4ccc(CN5CCN(C)CC5)cc4)cc23)cn1        86.71%
16  CN1CCN(Cc2ccc(-c3cnc4[nH]cc(-c5cccc(OCc6ccccc6)c5)c4c3)cc2)CC1        44.17%
17  CN1CCN(Cc2ccc(-c3cnc4[nH]cc(-c5csc6ccccc56)c4c3)cc2)CC1        68.84%
18  CN1CCN(Cc2ccc(-c3cnc4[nH]cc(-c5ccc(F)c(C(=O)O)c5)c4c3)cc2)CC1        57.91%
19  CN1CCN(Cc2ccc(-c3cnc4[nH]cc(-c5cccc6[nH]ncc56)c4c3)cc2)CC1        31.88%
20  CN1CCN(Cc2ccc(-c3cnc4[nH]cc(-c5cccc(F)c5)c4c3)cc2)CC1        40.75%
21  Cc1ccc(S(=O)(=O)n2cc(-c3ccc4[nH]ccc4c3)c3cc(-c4ccc(C=O)cc4)cnc32)cc1        93.68%
22  CN1CCN(Cc2ccc(-c3cnc4[nH]cc(-c5ccc6[nH]ncc6c5)c4c3)cc2)CC1        33.57%
23  CN1CCN(Cc2ccc(-c3cnc4[nH]cc(-c5cccc([N+](=O)[O-])c5)c4c3)cc2)CC1        40.84%

###

Measured remaining activity at 0.1 µM values are reported for all entries that follow.
molecular target: panel of 60 human kinases (Homo sapiens); construct: purchased Reaction Biology Corp; experiment: Radiolabeled ATP kinase assay, panel of 60 kinases (Table S5); assay type: biochemical; details: Aurora B; 0.1 μM; 10 μM ATP; read-out: % Enzyme Activity (relative to DSMO controls)
TEST READOUT: remaining activity at 0.1 µM (%)

> print(dat)
                                   molecule  assay.result
1  COc1ccccc1-c1c[nH]c2ncc(-c3ccc(CN4CCN(C)CC4)cc3)cc12 [Compound 7at]          87.8
2  CN1CCN(Cc2ccc(-c3cnc4[nH]cc(-c5ccoc5)c4c3)cc2)CC1 [Compound 7w]          89.9
3  CN1CCN(Cc2ccc(-c3cnc4[nH]cc(-c5ccc6[nH]ccc6c5)c4c3)cc2)CC1 [Compound 1, reference compound]          88.8
4  CN1CCN(Cc2ccc(-c3cnc4[nH]cc(-c5cccc(Cl)c5)c4c3)cc2)CC1 [Compound 7ad]          91.8

###

Quick reference for remaining activity at 0.1 µM among some compounds
molecular target: panel of 60 human kinases (Homo sapiens); construct: purchased Reaction Biology Corp; assay: Radiolabeled ATP kinase assay, panel of 60 kinases (Table S5); type: biochemical; details: KHS/MAPK4K5; 0.1 μM; 10 μM ATP; read-out: % Enzyme Activity (relative to DSMO controls)
TEST READOUT: remaining activity at 0.1 µM (%)

> print(dat)
                  compound.structure.string  u  assay.result
1  CN1CCN(Cc2ccc(-c3cnc4[nH]cc(-c5ccoc5)c4c3)cc2)CC1  %          15.1
2  CN1CCN(Cc2ccc(-c3cnc4[nH]cc(-c5ccccc5Cl)c4c3)cc2)CC1  %          0.89
3  CN1CCN(Cc2ccc(-c3cnc4[nH]cc(-c5ccncc5)c4c3)cc2)CC1  %          30.9
4  CN1CCN(Cc2ccc(-c3cnc4[nH]cc(-c5cccc(Cl)c5)c4c3)cc2)CC1  %           5.8

###

Biological target: panel of 60 human kinases (Homo sapiens, UniProt P08581)
Construct: purchased Reaction Biology Corp
Sequence (P08581 25-1390): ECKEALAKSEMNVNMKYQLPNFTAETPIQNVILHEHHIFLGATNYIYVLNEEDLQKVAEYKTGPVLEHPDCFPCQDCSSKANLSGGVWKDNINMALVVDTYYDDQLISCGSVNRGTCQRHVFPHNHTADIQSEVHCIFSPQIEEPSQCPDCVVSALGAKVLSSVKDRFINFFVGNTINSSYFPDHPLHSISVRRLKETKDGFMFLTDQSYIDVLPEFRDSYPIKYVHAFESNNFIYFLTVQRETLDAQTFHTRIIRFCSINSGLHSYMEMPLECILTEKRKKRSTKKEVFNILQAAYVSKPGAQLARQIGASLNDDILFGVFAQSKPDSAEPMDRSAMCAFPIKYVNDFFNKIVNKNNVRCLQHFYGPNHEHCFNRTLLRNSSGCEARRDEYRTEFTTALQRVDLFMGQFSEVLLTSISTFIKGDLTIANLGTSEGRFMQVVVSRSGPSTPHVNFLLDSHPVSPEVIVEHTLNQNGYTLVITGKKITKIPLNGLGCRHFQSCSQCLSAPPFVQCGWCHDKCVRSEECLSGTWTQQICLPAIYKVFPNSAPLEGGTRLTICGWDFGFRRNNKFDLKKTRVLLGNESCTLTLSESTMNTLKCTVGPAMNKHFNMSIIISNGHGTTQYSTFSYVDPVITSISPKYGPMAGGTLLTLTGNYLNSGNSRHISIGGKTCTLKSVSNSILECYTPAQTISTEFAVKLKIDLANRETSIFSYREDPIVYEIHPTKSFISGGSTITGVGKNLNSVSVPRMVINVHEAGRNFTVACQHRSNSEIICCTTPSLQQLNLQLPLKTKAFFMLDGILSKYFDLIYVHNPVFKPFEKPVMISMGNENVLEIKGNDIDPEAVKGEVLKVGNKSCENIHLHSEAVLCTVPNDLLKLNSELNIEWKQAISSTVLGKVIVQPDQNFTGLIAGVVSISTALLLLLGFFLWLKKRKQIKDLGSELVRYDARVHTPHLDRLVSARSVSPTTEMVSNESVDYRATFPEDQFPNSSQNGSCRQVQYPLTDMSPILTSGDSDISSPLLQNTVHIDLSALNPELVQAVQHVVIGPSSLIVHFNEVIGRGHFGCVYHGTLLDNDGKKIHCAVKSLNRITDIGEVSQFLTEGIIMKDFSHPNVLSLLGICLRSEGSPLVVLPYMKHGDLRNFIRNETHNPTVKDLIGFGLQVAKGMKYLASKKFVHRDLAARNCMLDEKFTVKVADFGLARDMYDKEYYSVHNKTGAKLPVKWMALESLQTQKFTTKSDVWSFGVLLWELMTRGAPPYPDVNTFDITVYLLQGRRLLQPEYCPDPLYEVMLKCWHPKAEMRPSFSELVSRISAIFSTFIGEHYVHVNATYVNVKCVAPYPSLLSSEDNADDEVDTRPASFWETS
Test: Radiolabeled ATP kinase assay, panel of 60 kinases (Table S5)
Assay type: biochemical
Settings: c-MET; 0.1 μM; 10 μM ATP; read-out: % Enzyme Activity (relative to DSMO controls)
Procedure: To better understand the biologically relevant targets of compound 1 and its analogs, a second round of cell-free kinase assays was performed. In this expanded assay, we selected ten analogs ranging from moderately to very strongly protective in the CPA assay. These analogs were evaluated for their ability to inhibit a selection of 60 kinases at 0.1 μM and 0.5 μM. […] RNAseq data were used to confirm the expression of each kinase in ES MNs (see Example 12). […]
Below, each entry is listed with its recorded remaining activity at 0.1 µM.
TEST READOUT: remaining activity at 0.1 µM (%)

> print(dat)
                  compound.structure.string                  test.readout  u  assay.result
1  CN1CCN(Cc2ccc(-c3cnc4[nH]cc(-c5cnn(Cc6ccccc6)c5)c4c3)cc2)CC1  remaining activity at 0.1 µM  %          86.6
2  CN1CCN(Cc2ccc(-c3cnc4[nH]cc(-c5ccoc5)c4c3)cc2)CC1  remaining activity at 0.1 µM  %          96.6
3  Cc1nn(C)c(C)c1-c1c[nH]c2ncc(-c3ccc(CN4CCN(C)CC4)cc3)cc12  remaining activity at 0.1 µM  %          77.4
4  CN1CCN(Cc2ccc(-c3cnc4[nH]cc(-c5ccncc5)c4c3)cc2)CC1  remaining activity at 0.1 µM  %           102
5  CN1CCN(Cc2ccc(-c3cnc4[nH]cc(-c5cccc(Cl)c5)c4c3)cc2)CC1  remaining activity at 0.1 µM  %          86.2

###

Biological target: panel of 60 human kinases (Homo sapiens, UniProt P24941)
Construct: purchased Reaction Biology Corp
Assay: Radiolabeled ATP kinase assay, panel of 60 kinases (Table S5)
Type: biochemical
Details: CDK2/cyclin E; 0.1 μM; 10 μM ATP; read-out: % Enzyme Activity (relative to DSMO controls)
Description: To better understand the biologically relevant targets of compound 1 and its analogs, a second round of cell-free kinase assays was performed. In this expanded assay, we selected ten analogs ranging from moderately to very strongly protective in the CPA assay. These analogs were evaluated for their ability to inhibit a selection of 60 kinases at 0.1 μM and 0.5 μM. […] RNAseq data were used to confirm the expression of each kinase in ES MNs (see Example 12). […]
Catalogue of compounds with associated remaining activity at 0.1 µM
TEST READOUT: remaining activity at 0.1 µM (%)

> print(dat)
                                   compound                               target.desc                  test.readout  assay.result
1  CN1CCN(Cc2ccc(-c3cnc4[nH]cc(-c5ccc6c(c5)OCCO6)c4c3)cc2)CC1 [Compound 7d]  panel of 60 human kinases (Homo sapiens, UniProt P24941)  remaining activity at 0.1 µM          89.1
2  CN1CCN(Cc2ccc(-c3cnc4[nH]cc(-c5ccoc5)c4c3)cc2)CC1 [Compound 7w]  panel of 60 human kinases (Homo sapiens, UniProt P24941)  remaining activity at 0.1 µM          92.4
3  CN1CCN(Cc2ccc(-c3cnc4[nH]cc(-c5ccccc5Cl)c4c3)cc2)CC1 [Compound 7as]  panel of 60 human kinases (Homo sapiens, UniProt P24941)  remaining activity at 0.1 µM          88.5
